Reported values of Signal/background for individual entries
targetOfAssay: T1, ADF peptide complexed with HLA-A*02:01 on T2 cells (human)
T1 construct: whole, on cells
experimentalDetails: flow cytometry, peptide-loaded T2 cells;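 note: binding of single-chain Fv antibody constructs, raised in XenoMouse, to peptide-pulsed T2 cells measured by flow cytometry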
Provide a numeric answer; units are not to be included.

Could you share which Signal/background value was measured for 18179-H7 (scFv, scFv in bacterial lysate, detected with anti-Flag M2) scFv: EVQLLESGGGLVQPGGSLRLSCAASGFTFSNAWMSWVRQAPGKGLEWVGRIKSKTYGGTTDYAAPVKGRFTISRDDSKNTLYLQMNSLKTEDTAVYYCTTPSYSGSYYNYFSVMDVWGQGTTVTVSSGGGGSGGGGSGGGGSELQMTQSPSSLSASVGDRVTITCRTSQSISSYLNWFQQKPGKAPKLLIFAASSLQSGVPSRFSGSGSGTDFTLTISSLQPEDFATYYCQQSYSSPFTFGPGTKVEIK ?
1.1

Next:
Could you share which Signal/background value was measured for 18179-D11 (scFv, scFv in bacterial lysate, detected with anti-Flag M2) scFv: EVQLLESGGGLVKPGGSLRLSCAASGFTFSNAWMSWVRQAPGKGLEWVGRIKGNTYGGTTDYAAPVKGRFTISRDDSKNTLFLQMNSLKTEDTAVYYCTTPSYSGSYYNYFSVMDVWGQGTTVTVSSGGGGSGGGGSGGGGSELQMTQSPSSLSASVGDRVTITCRTSQSISSYLNWYQQKPGRAPKLLIFAASSLQGGVPSRFSGSGSGTDFTLTISSLQPEDFATYYCQQTYSMPFTFGPGTKVDIK ?
1

Origin of values: patent US20220017636A1
